Reference for the values: the supplement of paper PMC11061612

Kindly state Bliss excess for each of the entries shown.
System: EVSA-T (Breast Carcinoma);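 further: after 72 h of two-drug dosing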
TEST: Bliss excess, mean over the matrix (fraction); higher = more synergy
# print the numeric value only

The value of Bliss excess recorded for Cc1cc2ncnn2cc1Nc1ncc2c(n1)n(C1CCOCC1)c(=O)n2C [AZD7648] + C[C@@H]1COCCN1C2=NC(=NC(=C2)C3(CC3)[S@](=N)(=O)C)C4=C5C=CNC5=NC=C4 [AZD6738] (first compound max 10 µM, 7x7, partner max 10 µM) when tested on EVSA-T (Breast Carcinoma) reads 0.0622

Noted Bliss excess for NC1(C(=O)N[C@@H](CCO)c2ccc(Cl)cc2)CCN(c2ncnc3[nH]ccc23)CC1 [Capivasertib] + CC(C)n1c(=O)n(C)c2cnc3cc(F)c(-c4ccc(OCCCN5CCCCC5)nc4)cc3c21 [AZD1390] (first compound max 10 µM, 7x7, partner max 0.3 µM) , tested on EVSA-T (Breast Carcinoma): -0.0326

Query COc1nnc2ccc(N3CCC(c4ccc(OCCN5CCN(C)C(=O)[C@H]5C)cc4)CC3)nn12 [AZD5153] + Cn1cnc2c(F)c(Nc3ccc(Br)cc3Cl)c(C(=O)NOCCO)cc21 [Selumetinib] (first compound max 1 µM, 7x7, partner max 10 µM) on EVSA-T (Breast Carcinoma); Bliss excess returned: -0.031
